- targetDesc: CH505.M7D8gp120/293F
- measurementProtocol: ELISA
propertyLabel: LogAUC
Give bare numbers.

{"binder": "CH241 (antibody, V domains shown) VH: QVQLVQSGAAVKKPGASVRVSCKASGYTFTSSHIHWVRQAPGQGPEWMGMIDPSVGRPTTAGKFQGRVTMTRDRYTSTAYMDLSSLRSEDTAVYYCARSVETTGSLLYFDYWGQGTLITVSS VL: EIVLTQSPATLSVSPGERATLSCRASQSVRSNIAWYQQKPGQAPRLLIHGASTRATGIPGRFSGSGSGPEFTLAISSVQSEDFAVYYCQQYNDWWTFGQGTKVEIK", "LogAUC": 0}

Fill in LogAUC for each of the 5 binders listed.
1. CH557 (antibody, V domains shown, also called CH235.12; CH557_4A/293i) VH: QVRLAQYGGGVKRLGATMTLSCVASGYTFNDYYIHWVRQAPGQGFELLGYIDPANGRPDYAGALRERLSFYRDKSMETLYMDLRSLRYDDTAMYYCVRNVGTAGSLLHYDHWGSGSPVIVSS VL: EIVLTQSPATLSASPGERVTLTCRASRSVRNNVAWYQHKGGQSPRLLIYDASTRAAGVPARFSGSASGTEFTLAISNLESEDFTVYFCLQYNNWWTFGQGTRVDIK
2. CH555 (antibody, V domains shown, also called CH235.10) VH: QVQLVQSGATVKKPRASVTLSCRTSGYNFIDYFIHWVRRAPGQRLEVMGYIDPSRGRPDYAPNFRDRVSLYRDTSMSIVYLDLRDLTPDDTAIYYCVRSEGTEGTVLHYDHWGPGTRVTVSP VL: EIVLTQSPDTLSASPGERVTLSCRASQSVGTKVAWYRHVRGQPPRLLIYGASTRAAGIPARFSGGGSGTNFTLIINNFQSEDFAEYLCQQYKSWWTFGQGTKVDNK
3. CH236 (antibody, V domains shown, also called CH236_4A/293i) VH: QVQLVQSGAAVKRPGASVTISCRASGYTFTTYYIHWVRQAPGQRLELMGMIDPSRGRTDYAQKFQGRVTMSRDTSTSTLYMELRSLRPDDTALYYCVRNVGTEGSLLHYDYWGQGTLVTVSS VL: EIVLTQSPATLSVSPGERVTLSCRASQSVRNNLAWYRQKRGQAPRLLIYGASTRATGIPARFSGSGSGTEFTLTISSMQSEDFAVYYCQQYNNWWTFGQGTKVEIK
4. CH235.13 (antibody, V domains shown) VH: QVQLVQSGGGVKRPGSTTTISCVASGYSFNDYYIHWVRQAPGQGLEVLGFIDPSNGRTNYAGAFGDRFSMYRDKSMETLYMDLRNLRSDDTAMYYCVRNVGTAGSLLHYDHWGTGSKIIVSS VL: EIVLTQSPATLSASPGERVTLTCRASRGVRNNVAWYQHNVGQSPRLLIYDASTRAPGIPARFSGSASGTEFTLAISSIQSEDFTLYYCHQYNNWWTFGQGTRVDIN
5. CH235 (antibody, V domains shown, also called CH235_4A) VH: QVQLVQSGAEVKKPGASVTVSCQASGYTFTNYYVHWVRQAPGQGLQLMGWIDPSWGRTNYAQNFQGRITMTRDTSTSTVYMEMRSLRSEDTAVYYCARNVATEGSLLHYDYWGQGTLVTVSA VL: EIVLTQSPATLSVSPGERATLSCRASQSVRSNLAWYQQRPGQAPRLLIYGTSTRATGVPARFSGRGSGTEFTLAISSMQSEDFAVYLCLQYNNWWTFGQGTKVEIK

1: 0.69; 2: 0.09; 3: 0; 4: 0; 5: 0

Any idea what LogAUC was measured for CH493 (antibody, V domains shown, also called CH235.9; DH493) VH: QVRLLQYGGGVKRPGASMTISCVASGYNFNDYYIHWVRQAPGQGLELMGWIDPSGGRTDYAGAFGDRVSMYRDKSMNTLYMDLRSLRSGDTAMYYCVRNVGTAGSLLHYDHWGLGVMVTVSS VL: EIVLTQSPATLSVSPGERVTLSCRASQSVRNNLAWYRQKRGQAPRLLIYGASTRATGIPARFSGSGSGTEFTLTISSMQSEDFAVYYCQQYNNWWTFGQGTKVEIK ?
0.8
